Value source: ChEMBL document CHEMBL1141886

# System: Bacillus subtilis
# Experiment description: Antibacterial activity of compound against Bacillus subtilis at 40 ug/mL expressed as zone of inhibition
# Format: functional
Assay endpoint: Zone of inhibition

INSERT INTO measurements (compound, target, value_reported) VALUES
  ('Cc1cc(NS(=O)(=O)c2ccc(N)cc2)no1 [SULFAMETHOXAZOLE]', 'Bacillus subtilis', '27.43 mm'),
  ('Cc1cc(C)nc(NS(=O)(=O)c2ccc(N)cc2)n1 [SULFAMETHAZINE]', 'Bacillus subtilis', '21.76 mm'),
  ('Cc1nnc(NS(=O)(=O)c2ccc(N)cc2)s1 [SULFAMETHIZOLE]', 'Bacillus subtilis', '19.46 mm'),
  ('Nc1ccc(S(=O)(=O)Nc2ncccn2)cc1 [SULFADIAZINE]', 'Bacillus subtilis', '26.36 mm');

Request: Please give the measured Zone of inhibition for this compound: N=C(N)NS(=O)(=O)c1ccc(N)cc1 [SULFAGUANIDINE]
Response: 17.9 mm

---

# Zone of inhibition per record follows
# Tested on: Bacillus subtilis
# Experiment description: Antibacterial activity of compound against Bacillus subtilis at 20 ug/mL expressed as zone of inhibition
# Assay type: functional
Report only the number, with the unit mm understood.

Consider the following illustrative entries.
INSERT INTO results (compound_structure_string, value_reported) VALUES
  ('Cc1cc(NS(=O)(=O)c2ccc(N)cc2)no1', 25.46),
  ('N=C(N)NS(=O)(=O)c1ccc(N)cc1', 10.9),
  ('Nc1ccc(S(=O)(=O)Nc2ncccn2)cc1', 27.23),
  ('Cc1cc(C)nc(NS(=O)(=O)c2ccc(N)cc2)n1', 19.96);

Moving on to the next compound.
Request: Please give the measured Zone of inhibition for this compound: Cc1nnc(NS(=O)(=O)c2ccc(N)cc2)s1
Response: 19.13
